# TARGET DESC: serotonin 5HT1A receptor (Rat Hippocampus Membranes) (Rattus norvegicus)
# Construct: Hippocampus; from tissue; host or cells: rat hippocampus membranes
# Sequence (P19327 whole entry): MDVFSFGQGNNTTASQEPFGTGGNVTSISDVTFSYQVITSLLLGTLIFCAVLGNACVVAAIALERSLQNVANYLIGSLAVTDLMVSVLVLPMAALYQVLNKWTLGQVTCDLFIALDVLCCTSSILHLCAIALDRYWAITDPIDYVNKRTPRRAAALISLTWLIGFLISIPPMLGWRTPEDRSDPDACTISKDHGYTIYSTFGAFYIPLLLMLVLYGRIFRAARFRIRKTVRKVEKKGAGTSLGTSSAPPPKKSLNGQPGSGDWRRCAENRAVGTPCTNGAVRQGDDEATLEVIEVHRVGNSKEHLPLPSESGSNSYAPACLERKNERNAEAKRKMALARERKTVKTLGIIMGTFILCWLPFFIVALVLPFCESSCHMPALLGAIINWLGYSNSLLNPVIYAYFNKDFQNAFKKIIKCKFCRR
# PROCEDURE DETAILS: Inhibition of [^3 H]8-OH-DPAT Binding to Rat Hippocampus Membranes
# CONDITION PARAMETERS: [^3 H]-8-OH-DPAT ligand
MEASURED ATTRIBUTE: pKi
Scale: pKi equals -log10([C]), with [C] in mol/L.

Q: Requested field: pKi. Item: Fc1ccc(N2CCN(CC[C@H]3CC[C@H](Nc4ncccn4)CC3)CC2)cc1
A: 8.36

Q: Requested field: pKi. Item: c1ccc(N2CCN(CC[C@H]3CC[C@H](Nc4ncccn4)CC3)CC2)cc1
A: 8.51

Q: Requested field: pKi. Item: Cl.c1ccc(N2CCN(CC[C@H]3CC[C@@H](Nc4ncccn4)CC3)CC2)nc1 [Example 1, hydrochloride]
A: 8.06

Q: Requested field: pKi. Item: c1ccc(N2CCN(CC[C@H]3CC[C@H](Nc4cnccn4)CC3)CC2)cc1
A: 8.29

Q: Requested field: pKi. Item: c1ccc(N2CCN(CC[C@H]3CC[C@H](Nc4ccccn4)CC3)CC2)cc1
A: 8.92

----------
# TARGET DESC: dopamine D2 receptor (h-D2 Receptors) (Homo sapiens)
# Sequence (P14416 whole entry): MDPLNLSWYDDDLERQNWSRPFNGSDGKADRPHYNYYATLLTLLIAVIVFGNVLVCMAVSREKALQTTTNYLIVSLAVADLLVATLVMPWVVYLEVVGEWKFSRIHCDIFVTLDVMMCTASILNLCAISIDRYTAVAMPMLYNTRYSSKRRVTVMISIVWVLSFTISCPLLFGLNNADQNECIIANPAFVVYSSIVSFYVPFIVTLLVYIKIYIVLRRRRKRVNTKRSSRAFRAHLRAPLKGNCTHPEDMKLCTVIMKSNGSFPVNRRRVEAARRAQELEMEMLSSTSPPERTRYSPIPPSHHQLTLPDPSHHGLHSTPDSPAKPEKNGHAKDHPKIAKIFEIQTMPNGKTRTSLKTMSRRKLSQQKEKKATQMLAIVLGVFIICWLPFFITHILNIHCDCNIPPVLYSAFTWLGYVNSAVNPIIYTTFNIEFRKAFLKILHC
# PROCEDURE DETAILS: Inhibition of [^3 H]N-0437 Binding to h-D2 Receptors
# CONDITION PARAMETERS: [^3 H]N-0437 ligand
MEASURED ATTRIBUTE: Ki (nM)
Give the value, in units of nM, as a plain number.

Q: Requested field: Ki. Item: c1ccc(N2CCN(CC[C@H]3CC[C@H](Nc4nccs4)CC3)CC2)cc1 [Example 26]
A: 2.35

Q: Requested field: Ki. Item: c1ccc(N2CCN(CC[C@H]3CC[C@@H](Nc4ncccn4)CC3)CC2)cc1 [Example 9]
A: 28

Q: Requested field: Ki. Item: c1ccc(N2CCN(CC[C@H]3CC[C@H](Nc4ncccn4)CC3)CC2)cc1 [Example 2]
A: 3.4

Q: Requested field: Ki. Item: c1cnc(N[C@H]2CC[C@H](CCN3CCN(c4cccnc4)CC3)CC2)nc1 [Example 20]
A: 25.3

Q: Requested field: Ki. Item: c1ccc(N2CCN(CC[C@H]3CC[C@H](Nc4ccccn4)CC3)CC2)cc1 [Example 24]
A: 1.4

Q: Requested field: Ki. Item: Fc1ccc(N2CCN(CC[C@H]3CC[C@H](Nc4ncccn4)CC3)CC2)cc1 [Example 15]
A: 8.3

Q: Requested field: Ki. Item: c1ccc(N2CCN(CC[C@H]3CC[C@H](Nc4cnccn4)CC3)CC2)cc1 [Example 27]
A: 0.93
